TARGET_OR_TEST_SYSTEM: T1, cyno activated protein C (cyno (monkey))
T1 construct: also called cyno aPC; cyno APC
ASSAY_SUMMARY: ELISA, coated antigen

[
  {
    "BINDER": "Hu1573-4 (antibody, V domains shown, Humanized IgG, human gamma 1 / kappa constant regions by vectors pCP-hCg1 and pCP-hck; also called H1573VH.1B + H1573Vk.2A) VH: EVQLVESGGGLVQPGGSLRLSCAASGFTFSNYYLNWVRQAPGKGLEWVGDIRLKSNNYEKHYAESVKGRFTISRDDSKNSVYLQMNSLKTEDTAVYYCIREGDYFDYWGQGTTVTVSS VL: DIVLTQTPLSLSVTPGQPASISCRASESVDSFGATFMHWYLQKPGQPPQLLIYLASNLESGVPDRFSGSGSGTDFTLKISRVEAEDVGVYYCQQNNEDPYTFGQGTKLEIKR",
    "EC50 / nM": 0.904
  },
  {
    "BINDER": "Hu1573-1 (antibody, V domains shown, Humanized IgG, human gamma 1 / kappa constant regions by vectors pCP-hCg1 and pCP-hck; also called H1573VH.1 + H1573Vk.2C) VH: EVQLVESGGGLVQPGGSLRLSCAASGFTFSNYYLNWVRQAPGKGLEWVGDIRLKSNNYEKHYAESVKGRFTISRDDSKNSLYLQMNSLKTEDTAVYYCAREGDYFDYWGQGTTVTVSS VL: DIVLTQTPLSLSVTPGQPASISCRASESVDSFGATFMHWYLQKPGQPPQLLIYLASNLESGVPDRFSGSGSRTDFTLKISRVEAEDVGVYYCQQNNEDPYTFGQGTKLEIKR",
    "EC50 / nM": 0.865
  },
  {
    "BINDER": "Hu1573-6 (antibody, V domains shown, Humanized IgG, human gamma 1 / kappa constant regions by vectors pCP-hCg1 and pCP-hck; also called H1573VH.1C + H1573Vk.2) VH: EVQLVESGGGLVQPGGSLRLSCAASGFTFSNYYLNWVRQAPGKGLEWVADIRLKSNNYEKHYAESVKGRFTISRDDSKNSLYLQMNSLKTEDTAVYYCIREGDYFDYWGQGTTVTVSS VL: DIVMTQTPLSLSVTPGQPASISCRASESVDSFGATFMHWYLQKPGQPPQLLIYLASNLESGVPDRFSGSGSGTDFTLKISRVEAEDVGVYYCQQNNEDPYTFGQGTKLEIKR",
    "EC50 / nM": 0.9
  }
]
